test system: SNB-75; experiment: NCI tumour cell line growth inhibition, 48 h
The source made the active and inactive calls. Cut-off read from the data, not from the text of the source: active = GI50 up to about 1.1 µM and inactive = higher. Where a SMILES comes first, the peptide text is derived from it. [ ]: non-standard residue; d: D form. Ac5c = NC1(C(=O)O)CCCC1
test readout: GI50

Worked cases, answers included:
{"molecule": "CCNc1cnc2c(n1)c(=O)n(C)c(=O)n2C", "GI50": "48.9 µM (inactive)"}
{"molecule": "COc1ccc(/N=C/N(C)C)c(C)c1", "GI50": "16.7 µM (inactive)"}
{"molecule": "COc1ccc(OC)c(NC(=O)C(=O)C(C(C)=O)c2nc3ccc(Cl)cc3nc2O)c1 (stereo unspecified)", "GI50": "> 50 µM (inactive)"}
{"molecule": "CCCCN1CCC(O)(c2cc(C(=O)O)[nH]c2-c2cc(C)no2)C1=O (stereo unspecified)", "GI50": "49.9 µM (inactive)"}
{"molecule": "c1ccc(CCn2cncn2)cc1", "GI50": "> 100 µM (inactive)"}

[ask] Value lookup for GI50; key = N#CC(C#N)=C(N)/C(C#N)=C/c1ccc2ccccc2n1
[reply] 25.8 µM (inactive)

[ask] So what does the record say about GI50 for Cc1ccc(SC(C)/C=C/NNC2=NN=C(c3ccccc3)C(c3ccccc3)N2)cc1 (stereo unspecified) ?
[reply] 20.7 µM (inactive)

[ask] Any idea what GI50 was measured for Cn1cc(NC(=O)c2cc(NC(=O)CCCCCCCCCCC(=O)Nc3cc(C(=O)Nc4cc(C(=O)NCCC(=N)N)n(C)c4)n(C)c3)cn2C)cc1C(=O)NCCC(=N)N ?
[reply] > 100 µM (inactive)

[ask] Entry CC(=O)C1=C(C)N(c2ccccc2)C2(O)C3=C(C(=O)c4ccccc4C3=O)C(O)=CC12Cl (stereo unspecified) has what GI50?
[reply] 4.28 µM (inactive)

[ask] Query (molecule): CCOC(=O)/C=C(\C)c1ccc(Cl)cc1 ; field requested: GI50
[reply] > 100 µM (inactive)

[ask] Dear colleague, I am looking for the recorded GI50 of the following molecule: O/N=N\c1nc(-c2ccccn2)nc2ccccc12
[reply] 20.3 µM (inactive)

[ask] Quick check: GI50 of OC1(c2ccccc2)CCN(Cc2c[nH]c3ccccc23)CC1 ?
[reply] > 100 µM (inactive)

[ask] Please give the measured GI50 for this molecule: O=C(O)C1(C(=O)O)CCN(S(=O)(=O)c2ccccc2)CC1
[reply] > 100 µM (inactive)

[ask] Requested field: GI50. Item: COC(=O)C1(NC(=O)C(C)NC(=O)C(CCCCN)NC(=O)C(CC(C)C)NC(C)=O)CCCC1 (stereo unspecified) (Ac-LKA[Ac5c]-OMe; configuration not given here)
[reply] > 100 µM (inactive)

[ask] What GI50 value was documented for this molecule, N#Cc1ccc(-c2nc(C#N)c(N)o2)cc1 ?
[reply] > 10 µM (inactive)

[ask] What value of GI50 has been recorded for this entry: CC(C)(C)OC(=O)n1c(Cl)c(C=O)c2ccccc21
[reply] 68.5 µM (inactive)

[ask] Any idea what GI50 was measured for O=S1(=O)OCCOS(=O)(=O)C1Cc1ccccc1 ?
[reply] 47.3 µM (inactive)

[ask] Which GI50 value is on record for Cc1cc(C)n(-c2c(O)ccc(O)c2-n2nc(C)cc2C)n1 ?
[reply] > 100 µM (inactive)

[ask] Suppose we examine the molecule Cc1cc(CC(=O)NCCO)n(CCO)c(=O)c1 ; what GI50 value has been reported?
[reply] 84.1 µM (inactive)

[ask] Give its GI50 value. Item: N#Cc1cc([N+](=O)[O-])ccc1NC(=O)C(F)(F)F
[reply] > 49.7 µM (inactive)

[ask] For the molecule shown here, Cc1cc(C)c(C2=NO[C@@H]3C(=O)N(c4ccc(Cc5ccc(N6C(=O)[C@H]7C(c8c(C)cc(C)cc8C)=NO[C@H]7C6=O)cc5)cc4)C(=O)[C@H]23)c(C)c1 , give the reported GI50.
[reply] > 100 µM (inactive)

* * *

tested on: OVCAR-4; assay: NCI tumour cell line growth inhibition, 48 h
Calls of active or inactive are those of the source. Cut-off read from the data, not from the text of the source: active = GI50 up to about 1.1 µM and inactive = higher.
Mark one answer only. Choices: active, inactive

Illustrative cases are given below, each with its answer.
{"molecule": "CCO/C=C/C(C)C1(C(=O)OCC)CCCCC1=O (stereo not drawn)", "label": "inactive"}
{"molecule": "O=[N+]([O-])c1cc2oc(COc3ccccc3)nc2cc1Cl", "label": "inactive"}

[ask] What did the test return for CSc1c(C#N)c(=O)n(N)c2c1c(C)nn2-c1ccccc1 ?
[reply] inactive

[ask] Hey, what did the test say about CN/N=C(\C(=O)Nc1ccc(C(F)(F)F)cc1[N+](=O)[O-])C(c1cnc2ccc([N+](=O)[O-])cc2n1)[N+](=O)[O-] (stereo not drawn) ?
[reply] inactive

[ask] // outcome(item) with item = COC1(OC)CC2CCCCC2=C(C)N1S(=O)(=O)c1ccccc1 (stereo not drawn)
[reply] inactive

[ask] Per the assay record, what outcome was assigned to CCOC(=O)/C=C(\C(=O)OCC)n1cc(C)c(=O)n(Cc2cn(CCCCOC(C)=O)nn2)c1=O ?
[reply] inactive

[ask] Which outcome was entered for the molecule CN(CCCNc1ccc2ncn3c4ccccc4c(=O)c1c23)CCCN1C(=O)c2cccc3cc([N+](=O)[O-])cc(c23)C1=O in this test?
[reply] active

[ask] For Cc1cc(C)c(C2=NO[C@@H]3C(=O)N(c4ccc(Cc5ccc(N6C(=O)[C@H]7C(c8c(C)cc(C)cc8C)=NO[C@H]7C6=O)cc5)cc4)C(=O)[C@H]23)c(C)c1 , which call appears in the assay record?
[reply] inactive

* * *

Reported GI50 values for a set of compounds
system: MDA-MB-435; experiment: NCI tumour cell line growth inhibition, 48 h
Calls of active or inactive are those of the source. Rule as the data show it: active = GI50 up to about 1.1 µM and inactive = higher.

{"compound": "COC1=CC(=O)c2c(O)c3c(c(O)c2C1=O)CC(C)(O)OC3 (stereo unspecified)", "GI50": "1.65 µM (inactive)"}
{"compound": "Clc1ccc2nc3[nH]nc(Cl)c3nc2c1", "GI50": "77.8 µM (inactive)"}
{"compound": "COc1cc(O)cc(/C=C/c2ccc(O)cc2)c1", "GI50": "31.3 µM (inactive)"}
{"compound": "Cc1ccc(NC(=O)COc2ccc(Cl)cc2)cc1Cl", "GI50": "> 100 µM (inactive)"}
{"compound": "CC1=CC(C)C(C)N(CCNC(=O)Nc2ccccc2)c2ccccc21 (stereo unspecified)", "GI50": "25.1 µM (inactive)"}

# evaluate next
[ask] Would you mind telling me what GI50 value was observed for O=C1c2ccccc2-c2nc(-c3cccnc3)cc3c2c1nc1ccccc13 ?
[reply] 18.2 µM (inactive)

* * *

test system: UACC-257; assay: NCI tumour cell line growth inhibition, 48 h
Activity calls are given as the source filed them. Rule as the data show it: active = GI50 up to about 1.1 µM and inactive = higher.
test readout: GI50

{"molecule": "CN1c2ccccc2N(C(=O)c2ccc(Cl)cc2)C(CC(=O)O)c2cccn21 (stereo not given)", "GI50": "> 100 µM (inactive)"}
{"molecule": "CN(C)CCCN1c2ccc(O)cc2Sc2ccc(Cl)cc21 [7-HYDROXYCHLORPROMAZINE]", "GI50": "1.71 µM (inactive)"}
{"molecule": "C=C(C)C(=O)O[C@H]1CC2=C[C@@H](C[C@@]3(C)O[C@@H]3[C@H]3OC(=O)C(=C)[C@@H]31)OC2=O", "GI50": "1.85 µM (inactive)"}
{"molecule": "CC(=O)OC/C=C(/C=C/CNC1CCCCC1)OC(C)=O", "GI50": "15.1 µM (inactive)"}
{"molecule": "COC1CC(C)(NC(C)=O)C2OC(c3ccccc3)OCC2O1 (stereo not given)", "GI50": "> 100 µM (inactive)"}

[ask] Reported GI50, molecule C=C(CCC(C)C1CCC2C3=C(C(=O)CC21C)C1(C)CCC(=O)[C@@H](C)C1CC3=O)C(C)C(=O)O (stereo not given in full) : ____
[reply] 46.9 µM (inactive)

* * *

test system: SF-539; assay: NCI tumour cell line growth inhibition, 48 h
Calls of active or inactive are those of the source. Rule as the data show it: active = GI50 up to about 1.1 µM and inactive = higher.
# GI50 listing for each entry below

{"molecule": "CNS(=O)(=O)NN(C)S(=O)(=O)c1ccc(F)cc1", "GI50": "> 100 µM (inactive)"}
{"molecule": "O=c1nc(/C=C/c2ccccc2Cl)cc2n1CCN2CCO", "GI50": "> 100 µM (inactive)"}
{"molecule": "CCCCCCCC1c2cc3nc(cc4[nH]c(cc5nc(cc([nH]2)[C@@]1(C)CC(=O)N(C)C)C(C)=C5CCC(=O)O)c(CCC(=O)O)c4C)C=C3C (some centres undefined)", "GI50": "18.9 µM (inactive)"}
{"molecule": "COC(=O)C1=C(C)NC(C)=C(C(=O)OCCCN2CCC(c3ccccc3)(c3ccccc3)CC2)[C@H]1c1cccc([N+](=O)[O-])c1", "GI50": "1.8 µM (inactive)"}
{"molecule": "Cc1cn(C2CC(O)C(CO)C2C)c(=O)[nH]c1=O (centres undefined)", "GI50": "> 100 µM (inactive)"}
{"molecule": "COC(=O)C(C)(C)OCc1ccc(C2NC(=O)N(c3cccc(Cl)c3)C(=O)N2c2cccc(Cl)c2)cc1 (centres undefined)", "GI50": "50.1 µM (inactive)"}

[ask] What value of measured GI50 is listed for CCN(CC)C(=S)N/N=C(/C)c1cccc(/C(C)=N\NC(=S)N(CC)CC)n1 ?
[reply] 1.37 µM (inactive)

[ask] Param item = COc1cc(O)c2c(c1)C(=O)c1cc(C)cc(O)c1C2=O ; retrieve measured GI50.
[reply] > 100 µM (inactive)

[ask] Entry COc1cc(/C=N/N=C2NCCCCN2)ccc1O has what GI50?
[reply] > 100 µM (inactive)
